# System: castrated male rats (levator ani, seminal vesicules, prostate)
# measurement-notes: Anabolisant-androgenic activity, Hershberger technique slightly modified (castrated rats, oral)
# Format: in vivo, rat
# condition-info: daily dose 10 μg/rat, oral, 10 days
reported-endpoint: Seminal vesicules weight (mg)
Give a bare numeral; the unit mg is implied.

Examples with their reported Seminal vesicules weight follow.
1. CC(C)CO[C@H]1CC[C@H]2[C@@H]3CCC4=CC(=O)CCC4=C3C=C[C@]12C ... 9.2
2. CC(C)=CCO[C@H]1CC[C@H]2[C@@H]3CCC4=CC(=O)CCC4=C3C=C[C@]12C ... 8.2

Query: Answer with reported Seminal vesicules weight of CCCCCO[C@H]1CC[C@H]2[C@@H]3CCC4=CC(=O)CCC4=C3C=C[C@]12C
Reply: 13.1

Query: Output measured Seminal vesicules weight for this item: C[C@]12C=CC3=C4CCC(=O)C=C4CC[C@H]3[C@@H]1CC[C@@H]2OCC1CC1
Reply: 9.9

* * *

# Test system: castrated male rats (levator ani, seminal vesicules, prostate)
# measurement-notes: Anabolisant-androgenic activity, Hershberger technique slightly modified (castrated rats, oral)
# Format: in vivo, rat
# condition-info: daily dose 10 μg/rat, oral, 10 days
reported-endpoint: Levator ani weight (mg)
Respond with the bare value in mg.

Consider the worked cases shown below.
1. C[C@]12C=CC3=C4CCC(=O)C=C4CC[C@H]3[C@@H]1CC[C@@H]2OCC1CC1 ... 20.7
2. CC(C)=CCO[C@H]1CC[C@H]2[C@@H]3CCC4=CC(=O)CCC4=C3C=C[C@]12C ... 28.7
3. CC(C)CO[C@H]1CC[C@H]2[C@@H]3CCC4=CC(=O)CCC4=C3C=C[C@]12C ... 24.6

Okay, now this compound:
Query: Entry CCCCCO[C@H]1CC[C@H]2[C@@H]3CCC4=CC(=O)CCC4=C3C=C[C@]12C needs its Levator ani weight filled in; supply it.
Reply: 28.4
